List of responders at 100 mg/kg values.
test system: mice (hypoxic environment); test: Hypoxic survival test; type: in vivo, mouse (Royal Hart); details: Mus musculus, ip, 5 min, 100 mg/kg, intraperitoneal, 10% oxygen, 5 minutes; read-out: % Survivors
Counter-ions that a name gives are not always drawn.

compound: N#Cc1cnn2c1N(C(=O)CN1CCN(Cc3ccccc3)CC1)CC=C2c1cc(Cl)ccc1Cl
responders at 100 mg/kg: 50%
--
compound: N#Cc1cnn2c1N(C(=O)CN1CCN(c3ccc(F)cc3)CC1)CC=C2c1cccc(C(F)(F)F)c1 [Example 153, monohydrochloride]
responders at 100 mg/kg: 35%
--
compound: CC1=C(c2cccc(C(F)(F)F)c2)n2ncc(C#N)c2N(C(=O)CN2CCN(Cc3ccccc3)CC2)C1 [Example 111, dihydrochloride]
responders at 100 mg/kg: 73%
--
compound: COc1cccc(CN2CCN(CC(=O)N3CC=C(c4ccccc4)n4ncc(C#N)c43)CC2)c1
responders at 100 mg/kg: 55%

----------
test system: Brain-Specific Receptors of Rats (3H-benzodiazepine binding); experiment: Inhibition of the binding of 3H-benzodiazepine to brain-specific receptors of rats; design: species or system rat (Wistar strain, whole cortex); details: rat cortex P2 fraction, 3H-diazepam 1.5 nM or 3H-flunitrazepam 1.0 nM
Counter-ions that a name gives are not always drawn.
readout: % Inhibition (3H-benzodiazepine binding) (%)

compound: N#Cc1cnn2c1N(C(=O)CN1CCN(Cc3ccccc3)CC1)CC=C2c1cccc(C(F)(F)F)c1
test_target: Brain-Specific Receptors of Rats (3H-benzodiazepine binding)
data_value: 17
//
compound: N#Cc1cnn2c1N(C(=O)CN1CCN(CC(=O)N3CCCC3)CC1)CC=C2c1cccc(C(F)(F)F)c1
test_target: Brain-Specific Receptors of Rats (3H-benzodiazepine binding)
data_value: 33
//
compound: CN1CCN(CC(=O)N2CC=C(c3cccc(C(F)(F)F)c3)n3ncc(C#N)c32)CC1
test_target: Brain-Specific Receptors of Rats (3H-benzodiazepine binding)
data_value: 41
//
compound: N#Cc1cnn2c1N(C(=O)CN1CCN(C(=O)c3ccco3)CC1)CC=C2c1cccc(C(F)(F)F)c1 [Example 96, hydrochloride]
test_target: Brain-Specific Receptors of Rats (3H-benzodiazepine binding)
data_value: 12
//
compound: Cl.Cl.N#Cc1cnn2c1N(C(=O)CN1CCN(Cc3ccccc3)CC1)CCC2c1cccc(C(F)(F)F)c1 (stereo not shown)
test_target: Brain-Specific Receptors of Rats (3H-benzodiazepine binding)
data_value: 12
//
compound: N#Cc1cnn2c1N(C(=O)CN1CCN(Cc3ccccc3)CC1)CCC2c1cccc(C(F)(F)F)c1 (stereo not shown)
test_target: Brain-Specific Receptors of Rats (3H-benzodiazepine binding)
data_value: 14
//
compound: N#Cc1cnn2c1N(C(=O)CN1CCN(C(=O)Nc3ccccc3)CC1)CC=C2c1cccc(C(F)(F)F)c1
test_target: Brain-Specific Receptors of Rats (3H-benzodiazepine binding)
data_value: 24

----------
List of responders at 100 mg/kg values.
tested on: mice (hypoxic environment); experiment: Hypoxic survival test; format: in vivo, mouse (Royal Hart); conditions: Mus musculus, ip, 5 min, 100 mg/kg, intraperitoneal, 10% oxygen, 5 minutes; read-out: % Survivors
Where a name gives a salt, the structure may show the parent alone.

compound: O=C(CN1CCN(Cc2ccccc2)CC1)N1CC=C(c2cccc(C(F)(F)F)c2)n2ncc(Br)c21
responders at 100 mg/kg, %: 35
//
compound: COc1ccc(C(=O)N2CCN(CC(=O)N3CC=C(c4cccc(C(F)(F)F)c4)n4ncc(C#N)c43)CC2)cc1
responders at 100 mg/kg, %: 45
//
compound: Cc1cccc(C2=CCN(C(=O)CN3CCN(Cc4ccccc4)CC3)c3c(C#N)cnn32)c1 [Example 149, hydrochloride]
responders at 100 mg/kg, %: 55
//
compound: N#Cc1cnn2c1N(C(=O)CN1CCN(CC#CCN3CCCC3=O)CC1)CC=C2c1cccc(C(F)(F)F)c1
responders at 100 mg/kg, %: 68
//
compound: N#Cc1cnn2c1N(C(=O)CN1CCN(Cc3ccccc3C(F)(F)F)CC1)CC=C2c1ccc(Cl)cc1
responders at 100 mg/kg, %: 90
//
compound: N#Cc1cnn2c1N(C(=O)CN1CCN(Cc3ccccc3)CC1)CC=C2c1ccccc1
responders at 100 mg/kg, %: 50
//
compound: N#Cc1cnn2c1N(C(=O)CN1CCN(Cc3cnn(-c4ccccc4)n3)CC1)CC=C2c1cccc(C(F)(F)F)c1
responders at 100 mg/kg, %: 52.5

The reported measurements were obtained from patent US4963553A.
